# System: intestinal alkaline phosphatase [Mus musculus]
# MEASUREMENT PROTOCOL: mouse intestinal phosphatase enzyme activation – biochemical, luminescence, single concentration, confirmation (AID 434970)
# ASSAY SETUP: purified mouse IAP, CDP-Star luminescence, 30 min, at 10 µM; measured here: IAP activation factor, stronger effect = higher value
About 310 (2.8%) of roughly 11,000 compounds were called active. What follows is part of a selection rich in actives, with near analogues and random picks from the rest.
Assign T whenever activation factor does not fall below 1; assign F whenever it does.

Answered cases to consult:
COMPOUND | CLASS
Cc1noc(C)c1COC(=O)C1COc2ccccc2O1 (stereo not given) | T
OC[C@@H]1CC[C@@H](Cc2ccc(-c3ccccc3)cc2)O1 | T
CCc1ccc(NC(=O)C2CC(=O)N(C(C)C)C2)cc1 (stereo not given) | F
O=C(NCCc1ccccc1)c1nc2nc(-c3cccs3)cc(C(F)(F)F)n2n1 | F
CCOC(=O)c1sc(N=NC2=C(O)CC(C)(C)CC2=O)c(C(=O)OCC)c1C | T
Cc1ccc(Cl)cc1NC(=S)NCCCSC1CCCCC1 | T

Incoming: Check this compound for activation factor at or above 1: CCOC(=O)c1sc(N=NC2=C(O)CCCC2=O)c(C(=O)OCC)c1C
Outgoing: F

Incoming: Check this compound for activation factor at or above 1: S=C(NCCCc1ccccc1)Nc1ccccc1Cl
Outgoing: T

Incoming: Check this compound for activation factor at or above 1: Cc1csc(NC(=O)Nc2ccc(Cl)cc2)n1
Outgoing: T

Incoming: Check this compound for activation factor at or above 1: COc1ccc(NC(=O)NC[C@@H]2CC[C@@H](Cc3ccc(-c4ccccc4)cc3)O2)cc1
Outgoing: T

Incoming: Check this compound for activation factor at or above 1: C[C@@H]1CN([C@H](C)CO)C(=O)Cc2cc(NC(=O)Nc3ccccc3)ccc2O[C@@H]1CN(C)Cc1ccc2c(c1)OCO2
Outgoing: T

Incoming: Check this compound for activation factor at or above 1: COc1ccc(/C=N/NC(=O)c2cc(-c3ccccc3OC)nc3ccccc23)cc1COC(C)=O
Outgoing: F

----------
# Tested on: intestinal alkaline phosphatase [Mus musculus]
# MEASUREMENT PROTOCOL: mouse intestinal phosphatase enzyme activation – biochemical, luminescence, single concentration, confirmation (AID 434970)
# ASSAY SETUP: purified mouse IAP, CDP-Star luminescence, 30 min, at 10 µM; measured here: IAP activation factor, stronger effect = higher value
The campaign covered roughly 11,000 compounds. About 310 (2.8%) were called active. This excerpt belongs to a sample that is enriched for actives.
ASSAY METRIC: activation factor
Kindly provide the number alone.

COMPOUND | TESTED SYSTEM | activation factor
CC(=O)c1cccc(NC(=O)NC2CC3CCCC(C2)N3CC(C)C)c1 (stereo unspecified) | intestinal alkaline phosphatase [Mus musculus] | 1.22
Cc1ccccc1-c1cc(C(=O)NCc2cccc(Br)c2)n(CC2CC(c3cccnc3)=NO2)n1 (stereo unspecified) | intestinal alkaline phosphatase [Mus musculus] | 1.56
CC(=O)NC1CC2CCCC(C1)N2CC(=O)Nc1ccccc1 (stereo unspecified) | intestinal alkaline phosphatase [Mus musculus] | 1.09

Incoming: Need activation factor, item Cc1cc(C)cc(NC(=S)NCCN(C2CCCCC2)C2CCCC2)c1
Outgoing: 1.28

Incoming: Need activation factor, item O=C(Nc1ccc2c(c1)N(Cc1ccccc1)C(=O)c1ccccc1S2)NC1CC1
Outgoing: 2.45

Incoming: Need activation factor, item COc1ccc(CN2C3CCCC2CC(NC(=O)Nc2ccccc2)C3)cc1 (stereo unspecified)
Outgoing: 4.65

Incoming: Need activation factor, item N#CCc1ccc(NC(=O)Nc2cccc3ccccc23)cc1
Outgoing: 1.89

Incoming: Need activation factor, item Cc1nn(C)cc1CNC(=O)c1cccc(Br)c1
Outgoing: 1.12

Incoming: Need activation factor, item O=C(Nc1ccccc1)Nc1cccc2ccccc12
Outgoing: 1.79

Incoming: Need activation factor, item CCOc1ccccc1NC(=O)N1C2CCCC1CC(NC(=O)C1CC1)C2 (stereo unspecified)
Outgoing: 1.05

Incoming: Need activation factor, item O=C(Nc1cccn(Cc2ccccc2)c1=O)NC1CCCCC1
Outgoing: 0.945
